study.system: T1, Cynomolgus monkey CD1a protein (Cynomolgus monkey)
T1 chain: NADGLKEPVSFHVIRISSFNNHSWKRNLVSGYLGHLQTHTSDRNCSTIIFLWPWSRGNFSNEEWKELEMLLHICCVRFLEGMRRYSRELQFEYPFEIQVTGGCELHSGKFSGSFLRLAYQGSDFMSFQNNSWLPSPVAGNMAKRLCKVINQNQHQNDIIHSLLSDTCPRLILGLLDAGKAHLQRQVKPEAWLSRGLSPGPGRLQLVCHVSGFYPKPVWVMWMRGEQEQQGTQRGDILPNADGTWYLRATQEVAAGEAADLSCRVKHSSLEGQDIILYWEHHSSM
protocol.description: ELISA, 0.1 µg/ml antibody
Recorded Optical Density (OD) for the following binders
parameter: Optical Density (OD)

# binder, parameter, readout.unit, result.number
data = [
    ("116 (VR12117) (antibody, V domains shown, also called OX116) VH: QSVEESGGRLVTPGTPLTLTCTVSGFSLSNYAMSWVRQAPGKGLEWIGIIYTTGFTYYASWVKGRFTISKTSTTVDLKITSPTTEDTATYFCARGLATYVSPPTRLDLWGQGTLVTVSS VL: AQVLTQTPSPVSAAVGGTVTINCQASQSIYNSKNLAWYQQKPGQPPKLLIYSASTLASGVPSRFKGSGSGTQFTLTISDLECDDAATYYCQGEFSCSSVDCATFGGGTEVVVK", "Optical Density (OD)", "OD", 0.07),
    ("111 (VR12113) (antibody, V domains shown, also called OX111) VH: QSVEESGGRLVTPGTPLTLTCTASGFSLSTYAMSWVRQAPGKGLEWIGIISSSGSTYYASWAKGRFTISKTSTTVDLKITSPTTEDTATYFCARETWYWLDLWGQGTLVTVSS VL: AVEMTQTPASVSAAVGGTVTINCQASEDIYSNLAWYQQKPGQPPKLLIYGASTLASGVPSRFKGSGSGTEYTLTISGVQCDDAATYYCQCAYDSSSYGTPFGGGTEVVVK", "Optical Density (OD)", "OD", 0.66),
    ("77A (VR11851) (antibody, V domains shown, also called OX77a; antibody 77a) VH: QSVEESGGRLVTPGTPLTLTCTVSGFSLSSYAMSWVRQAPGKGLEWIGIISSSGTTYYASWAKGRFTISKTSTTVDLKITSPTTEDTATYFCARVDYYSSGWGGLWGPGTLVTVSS VL: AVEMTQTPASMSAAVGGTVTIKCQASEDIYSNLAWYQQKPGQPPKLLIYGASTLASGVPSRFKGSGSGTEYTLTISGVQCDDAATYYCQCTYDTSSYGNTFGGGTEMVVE", "Optical Density (OD)", "OD", 0.24),
    ("16 (VR11834) (antibody, V domains shown, also called OX16; antibody 16) VH: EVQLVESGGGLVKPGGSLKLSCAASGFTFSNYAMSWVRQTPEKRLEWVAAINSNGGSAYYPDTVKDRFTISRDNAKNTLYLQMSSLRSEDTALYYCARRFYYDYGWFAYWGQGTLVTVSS VL: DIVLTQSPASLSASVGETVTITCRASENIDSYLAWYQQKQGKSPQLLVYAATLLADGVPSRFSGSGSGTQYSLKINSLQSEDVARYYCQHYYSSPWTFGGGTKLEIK", "Optical Density (OD)", "OD", 0.57),
    ("110 (VR12112) (antibody, V domains shown, also called OX110; antibody 110) VH: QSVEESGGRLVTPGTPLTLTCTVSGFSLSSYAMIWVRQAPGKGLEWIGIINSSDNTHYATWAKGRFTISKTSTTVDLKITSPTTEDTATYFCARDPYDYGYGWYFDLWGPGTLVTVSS VL: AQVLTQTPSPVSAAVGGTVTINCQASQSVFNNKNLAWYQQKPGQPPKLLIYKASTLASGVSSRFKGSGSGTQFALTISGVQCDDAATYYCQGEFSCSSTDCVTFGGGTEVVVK", "Optical Density (OD)", "OD", 0.53),
]
